- System: SK-MEL-28
- Procedure Summary: Growth inhibition of human SK-MEL-28 cells incubated for 48 hrs by sulforhodamine B assay
- Assay type: functional
- Test Parameters: SK-MEL-28, 48 h
Readout Type: GI50 (µM)
Give bare numbers, in µM.

{"columns": ["Mol Smiles", "Unit String", "GI50"],
 "data": [
  ["C/C(=C\\C(=O)O[C@H]1[C@@H]2[C@H](C)CC[C@H]2[C@]2(C)O[C@@]1(C(C)C)C[C@H]2NC(=O)CO)c1ccccc1", "µM", 45.7]
]}

Below are some compounds; for each one, tell me its GI50.
1. CC(C)[C@@]12C[C@@H](NC(=O)CO)[C@@](C)(O1)[C@@H]1CC[C@@H](C)[C@H]1[C@@H]2OC(=O)c1ccc2ccccc2c1
2. CC(C)[C@@]12C[C@@H](NC(=O)CO)[C@@](C)(O1)[C@@H]1CC[C@@H](C)[C@H]1[C@@H]2OC(=O)/C=C/c1ccccc1

Key:
1. 16.6
2. 20.9

---

- Tested on: T47D
- Procedure Summary: Growth inhibition of human T47D cells incubated for 48 hrs by sulforhodamine B assay
- Format: functional
- Test Parameters: read-out: pLC50 (the source's name) (converted)
Readout Type: CC50

Please review the entries below; each comes with its answer.
{"columns": ["Mol Smiles", "CC50"],
 "data": [
  ["CC(C)[C@@]12C[C@@H](NC(=O)CO)[C@@](C)(O1)[C@@H]1CC[C@@H](C)[C@H]1[C@@H]2OC(=O)c1ccc2ccccc2c1", "56.2 µM"],
  ["CC(C)[C@@]12C[C@@H](NC(=O)CO)[C@@](C)(O1)[C@@H]1CC[C@@H](C)[C@H]1[C@@H]2OC(=O)/C=C/C1CCCCC1", "> 44.7 µM"],
  ["C/C(=C\\C(=O)O[C@H]1[C@@H]2[C@H](C)CC[C@H]2[C@]2(C)O[C@@]1(C(C)C)C[C@H]2NC(=O)CO)c1ccccc1", "> 100 µM"]
]}

Here is the next item to consider.
Exercise: Could you tell me which CC50 is on file for "CC(C)[C@@]12C[C@@H](NC(=O)CO)[C@@](C)(O1)[C@@H]1CC[C@@H](C)[C@H]1[C@@H]2OC(=O)/C=C/c1ccccc1" ?
Key: > 50.1 µM

---

Field: TGI. Provide a value for each of the molecules that follow.
- Procedure Summary: Growth inhibition of human BT549 cells incubated for 48 hrs by sulforhodamine B assay
- Format: functional
- Test Parameters: BT-549, 48 h, read-out: pTGI (converted)
Numbers only, in µM.

Please review the entries below; each comes with its answer.
{"columns": ["Mol Smiles", "Test Value"],
 "data": [
  ["CC(C)[C@@]12C[C@@H](NC(=O)CO)[C@@](C)(O1)[C@@H]1CC[C@@H](C)[C@H]1[C@@H]2OC(=O)/C=C/c1ccccc1", 25.1],
  ["C/C(=C\\C(=O)O[C@H]1[C@@H]2[C@H](C)CC[C@H]2[C@]2(C)O[C@@]1(C(C)C)C[C@H]2NC(=O)CO)c1ccccc1", 69.2]
]}

Here is the next item to consider.
Exercise: Could you tell me which TGI is on file for "CC(C)[C@@]12C[C@@H](NC(=O)CO)[C@@](C)(O1)[C@@H]1CC[C@@H](C)[C@H]1[C@@H]2OC(=O)c1ccc2ccccc2c1" ?
Key: 28.8

---

- Test system: NCI-H322M
- Procedure Summary: Growth inhibition of human NCI-H322M cells incubated for 48 hrs by sulforhodamine B assay
- Type: functional
- Test Parameters: read-out: pTGI (converted)
Field: TGI. Provide a value for each of the compounds that follow.

{"columns": ["Mol Smiles", "Target", "Readout Type", "Test Value"],
 "data": [
  ["CC(C)[C@@]12C[C@@H](NC(=O)CO)[C@@](C)(O1)[C@@H]1CC[C@@H](C)[C@H]1[C@@H]2OC(=O)/C=C/C1CCCCC1", "NCI-H322M", "TGI", "> 44.7 µM"],
  ["C/C(=C\\C(=O)O[C@H]1[C@@H]2[C@H](C)CC[C@H]2[C@]2(C)O[C@@]1(C(C)C)C[C@H]2NC(=O)CO)c1ccccc1", "NCI-H322M", "TGI", "> 100 µM"],
  ["CC(C)[C@@]12C[C@@H](NC(=O)CO)[C@@](C)(O1)[C@@H]1CC[C@@H](C)[C@H]1[C@@H]2OC(=O)/C=C/c1ccccc1", "NCI-H322M", "TGI", "> 50.1 µM"]
]}

Here is the next item to consider.
Exercise: Could you tell me which TGI is on file for "CC(C)[C@@]12C[C@@H](NC(=O)CO)[C@@](C)(O1)[C@@H]1CC[C@@H](C)[C@H]1[C@@H]2OC(=O)c1ccc2ccccc2c1" ?
Key: 26.9 µM

---

- Procedure Summary: Growth inhibition of human IGROV1 cells assessed as cell growth at 10 uM incubated for 48 hrs by sulforhodamine B assay relative to control
- Format: functional
- Test Parameters: IGROV-1, 48 h, read-out: Activity
Readout Type: growth at 10 µM (%)
Give bare numbers, in %.

{"columns": ["Mol Smiles", "growth at 10 µM [%]"],
 "data": [
  ["CC(C)[C@@]12C[C@@H](NC(=O)CO)[C@@](C)(O1)[C@@H]1CC[C@@H](C)[C@H]1[C@@H]2OC(=O)/C=C/c1ccccc1", 106],
  ["CC(C)[C@@]12C[C@@H](NC(=O)CF)[C@@](C)(O1)[C@@H]1CC[C@@H](C)[C@H]1[C@@H]2OC(=O)/C=C/c1ccccc1", 103],
  ["CC(C)[C@@]12C[C@@H](NC(=O)CO)[C@@](C)(O1)[C@@H]1CC[C@@H](C)[C@H]1[C@@H]2OC(=O)/C=C/C1CCCCC1", 103],
  ["CC(C)[C@@]12C[C@@H](NC(=O)CO)[C@@](C)(O1)[C@@H]1CC[C@@H](C)[C@H]1[C@@H]2OC(=O)c1ccc2ccccc2c1", 94.3]
]}

Here is the next item to consider.
Exercise: Could you tell me which growth at 10 µM is on file for "C/C(=C\C(=O)O[C@H]1[C@@H]2[C@H](C)CC[C@H]2[C@]2(C)O[C@@]1(C(C)C)C[C@H]2NC(=O)CO)c1ccccc1" ?
Key: 104

---

- Procedure Summary: AUClast in mouse at 20 mg/kg, po administered through gavage up to 8 hrs by LC-MS/MS analysis
- Assay type: ADME, organism-based
- Design: time < 8 hr, dose 20 mg/kg, route oral
- Test Parameters: in vivo
Readout Type: AUC(0-t) at 8 h
Just so you know, I need the unit written after the number.

Exercise: Could you tell me which AUC(0-t) at 8 h is on file for "CC(C)[C@@]12C[C@@H](NC(=O)CO)[C@@](C)(O1)[C@@H]1CC[C@@H](C)[C@H]1[C@@H]2OC(=O)/C=C/c1ccccc1" ?
Key: 524 ng·h/mL

---

- Procedure Summary: Growth inhibition of human HL-60(TB) cells incubated for 48 hrs by sulforhodamine B assay
- Type: functional
- Test Parameters: HL-60, 48 h
Readout Type: GI50 (µM)
Numbers only, in µM.

Please review the entries below; each comes with its answer.
{"columns": ["Mol Smiles", "Readout Type", "Unit String", "Test Value"],
 "data": [
  ["CC(C)[C@@]12C[C@@H](NC(=O)CO)[C@@](C)(O1)[C@@H]1CC[C@@H](C)[C@H]1[C@@H]2OC(=O)c1ccc2ccccc2c1", "GI50", "µM", 20.4],
  ["C/C(=C\\C(=O)O[C@H]1[C@@H]2[C@H](C)CC[C@H]2[C@]2(C)O[C@@]1(C(C)C)C[C@H]2NC(=O)CO)c1ccccc1", "GI50", "µM", 17.8]
]}

Here is the next item to consider.
Exercise: Could you tell me which GI50 is on file for "CC(C)[C@@]12C[C@@H](NC(=O)CO)[C@@](C)(O1)[C@@H]1CC[C@@H](C)[C@H]1[C@@H]2OC(=O)/C=C/c1ccccc1" ?
Key: 14.5

---

Field: GI50. Provide a value for each of the compounds that follow.
- Procedure Summary: Growth inhibition of human SF268 cells incubated for 48 hrs by sulforhodamine B assay
- Type: functional
- Test Parameters: SF-268, 48 h

Please review the entries below; each comes with its answer.
{"columns": ["Mol Smiles", "GI50"],
 "data": [
  ["CC(C)[C@@]12C[C@@H](NC(=O)CO)[C@@](C)(O1)[C@@H]1CC[C@@H](C)[C@H]1[C@@H]2OC(=O)c1ccc2ccccc2c1", "13.5 µM"],
  ["CC(C)[C@@]12C[C@@H](NC(=O)CO)[C@@](C)(O1)[C@@H]1CC[C@@H](C)[C@H]1[C@@H]2OC(=O)/C=C/C1CCCCC1", "> 44.7 µM"],
  ["CC(C)[C@@]12C[C@@H](NC(=O)CO)[C@@](C)(O1)[C@@H]1CC[C@@H](C)[C@H]1[C@@H]2OC(=O)/C=C/c1ccccc1", "14.8 µM"]
]}

Here is the next item to consider.
Exercise: Could you tell me which GI50 is on file for "C/C(=C\C(=O)O[C@H]1[C@@H]2[C@H](C)CC[C@H]2[C@]2(C)O[C@@]1(C(C)C)C[C@H]2NC(=O)CO)c1ccccc1" ?
Key: 26.9 µM
